System: SW 954;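 note: growth inhibition of SW954 human cancer cells, read out as cell viability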
TEST_DETAILS: cells
Format: functional, cell-based, Homo sapiens
TEST_PARAMETERS: sw 954
Description: SANGER: Inhibition of human SW954 cell growth in a cell viability assay.
Where a SMILES comes first, the peptide text is derived from it. The star is where a group is joined. Cbz = O=C(OCc1ccccc1)*
QUANTITY_KIND: IC50

Exam item: Find the recorded IC50 belonging to CC(C)C[C@@H](C=O)NC(=O)[C@H](CC(C)C)NC(=O)[C@H](CC(C)C)NC(=O)OCc1ccccc1 [MG-132] (Cbz-Leu-Leu-Leu-aldehyde) and report it.
Marked response: > 1000 nM

====

Tested on: NCI-H82;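 note: growth inhibition of NCI-H82 cells, measured with a cell viability readout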
TEST_DETAILS: cells
Format: functional, cell-based, Homo sapiens
TEST_PARAMETERS: Homo sapiens, NCI-H82
Description: SANGER: Inhibition of human NCI-H82 cell growth in a cell viability assay.
Consider the following molecules and their measured IC50 readings.

Here's what some known entries look like.
Cc1ccc(-n2nc(C(C)(C)C)cc2NC(=O)Nc2ccc(OCCN3CCOCC3)c3ccccc23)cc1 [DORAMAPIMOD] : > 10000 nM
Cc1ccc(NC(=O)c2ccc(CN3CCN(C)CC3)cc2)cc1Nc1nccc(-c2cccnc2)n1 [IMATINIB] : > 2000 nM
NC(=O)Nc1cc(-c2cccc(F)c2)sc1C(=O)N[C@H]1CCCNC1 [AZD-7762] : > 2000 nM
CN(NC(=O)CC(=O)NN(C)C(=S)c1ccccc1)C(=S)c1ccccc1 [ELESCLOMOL] : > 200 nM
O=S(=O)(O)c1ccc2cc(/N=N/c3cc(S(=O)(=O)O)c4cccnc4c3O)ccc2c1 : > 16000 nM

Exam item: What value of IC50 has been recorded for this entry: Cc1ccc(C(=O)Nc2ccc(CN3CCN(C)CC3)c(C(F)(F)F)c2)cc1C#Cc1cnc2cccnn12 [PONATINIB]
Marked response: > 512 nM

Exam item: Here is the next molecule: NC(=O)c1ccc(N(C(N)=O)c2c(F)cccc2F)nc1-c1ccc(F)cc1F [VX-702]
Marked response: > 2000 nM

Exam item: Now this one: `COc1ccc(N(C(=O)Oc2c(C)cccc2C)c2ccnc(Nc3ccc(N4CCN(C)CC4)cc3)n2)c(OC)c1`
Marked response: > 5120 nM

Exam item: What do we get for C/C(=C\c1csc(C)n1)[C@@H]1C[C@@H]2O[C@]2(C)CCC[C@H](C)[C@H](O)[C@@H](C)C(=O)C(C)(C)[C@@H](O)CC(=O)O1 [PATUPILONE] ?
Marked response: > 32 nM

====

System: EW-7
TEST_DETAILS: SANGER: Inhibition of human EW-7 cell growth in a cell viability assay.
Format: functional, cell-based
QUANTITY_KIND: IC50

Exam item: Give recorded IC50 with EW-7 for the following compound: Cc1ccc(C(=O)Nc2ccc(CN3CCN(C)CC3)c(C(F)(F)F)c2)cc1C#Cc1cnc2cccnn12 [PONATINIB]
Marked response: > 512 nM

====

System: EFO-27;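 note: growth inhibition of EFO-27 cells, read out with a cell viability assay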
TEST_DETAILS: cells
Assay type: functional, cell-based
TEST_PARAMETERS: Homo sapiens
Description: SANGER: Inhibition of human EFO-27 cell growth in a cell viability assay.
QUANTITY_KIND: IC50

Exam item: Enter reported IC50 observed with EFO-27 for CC1=C(/C=C/C(C)=C/C=C/C(C)=C/C(=O)O)C(C)(C)CCC1 [TRETINOIN]
Marked response: > 10 µM

====

Tested on: MEL-HO
TEST_DETAILS: cells
Assay type: functional, cell-based
TEST_PARAMETERS: Homo sapiens
Description: SANGER: Inhibition of human MEL-HO cell growth in a cell viability assay.
Quick reference for IC50 among some compounds

// solved cases for IC50 follow
CS(=O)(=O)N1CCN(Cc2cc3nc(-c4cccc5[nH]ncc45)nc(N4CCOCC4)c3s2)CC1 : 2680 nM
O=C1NC(=O)c2c1c(-c1ccccc1Cl)cc1[nH]c3ccc(O)cc3c21 : > 2000 nM

Exam item: May I ask what IC50 has been recorded for `NC(=O)c1ccc(N(C(N)=O)c2c(F)cccc2F)nc1-c1ccc(F)cc1F` ?
Marked response: > 2000 nM

====

Let's look at some compounds and their measured pIC50.
System: OC-314
TEST_DETAILS: cells
Type: functional, cell-based
TEST_PARAMETERS: Homo sapiens
Description: SANGER: Inhibition of human OC-314 cell growth in a cell viability assay.
pIC50: −log10 of the molar value.

Solved cases below.
CS(=O)(=O)N1CCN(Cc2cc3nc(-c4cccc5[nH]ncc45)nc(N4CCOCC4)c3s2)CC1 : < 5.40
NC(=O)Nc1cc(-c2cccc(F)c2)sc1C(=O)N[C@H]1CCCNC1 : 7.11
Cc1ccc(-n2nc(C(C)(C)C)cc2NC(=O)Nc2ccc(OCCN3CCOCC3)c3ccccc23)cc1 : < 5.00

We next turn to a different compound, shown below.
Exam item: Data request, read-out pIC50, for `CN(C)CCOc1ccc(-c2nc(-c3ccncc3)c(-c3ccc4c(c3)CC/C4=N\O)[nH]2)cc1`
Marked response: < 5.30

====

The reader will find reported IC50 values listed item by item below.
System: NCI-H2087
TEST_DETAILS: cells
Assay type: functional, cell-based
TEST_PARAMETERS: Homo sapiens
Description: SANGER: Inhibition of human NCI-H2087 cell growth in a cell viability assay.

Check out these entries, answers already filled in.
COC(=O)[C@H](CCSC)NC(=O)c1ccc(NC[C@@H](N)CS)cc1-c1ccccc1 : > 1.02 µM
COc1ccc(-c2cc3nccn3c(Nc3ncccc3C(N)=O)n2)cc1OC : 2.79 µM

Next:
Exam item: Report IC50 for CS(=O)(=O)N1CCN(Cc2cc3nc(-c4cccc5[nH]ncc45)nc(N4CCOCC4)c3s2)CC1 [PICTILISIB] please.
Marked response: > 4 µM

====

Tested on: MRK-nu-1;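 note: cell viability assay measuring growth suppression of human MRK-nu-1 cells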
TEST_DETAILS: cells
Format: functional, cell-based, Homo sapiens
TEST_PARAMETERS: mrk-nu-1
Description: SANGER: Inhibition of human MRK-nu-1 cell growth in a cell viability assay.
Where a SMILES comes first, the peptide text is derived from it. The star is where a group is joined. Cbz = O=C(OCc1ccccc1)*
QUANTITY_KIND: IC50

Exam item: Reported IC50 for CC(C)C[C@@H](C=O)NC(=O)[C@H](CC(C)C)NC(=O)[C@H](CC(C)C)NC(=O)OCc1ccccc1 [MG-132] (Cbz-Leu-Leu-Leu-aldehyde) : what is it?
Marked response: > 1 µM

====

Tested on: LS-411N
TEST_DETAILS: cells
Assay type: functional, cell-based, Homo sapiens
TEST_PARAMETERS: Homo sapiens, LS-411N
pIC50: −log10 of the molar value.
// pIC50 lookup, one value per entry

Solved entries (count: 5):
COc1cc(N2CCC(N3CCN(C)CC3)CC2)ccc1Nc1ncc(Cl)c(Nc2ccccc2S(=O)(=O)C(C)C)n1 : 6.17
Cc1ccc(-n2nc(C(C)(C)C)cc2NC(=O)Nc2ccc(OCCN3CCOCC3)c3ccccc23)cc1 : < 5.00
NC(=O)c1cccc(-c2cc(Nc3ccc(OC(F)(F)F)cc3)ncn2)c1 : < 5.89
CN(C)CCOc1ccc(-c2nc(-c3ccncc3)c(-c3ccc4c(c3)CC/C4=N\O)[nH]2)cc1 : < 5.30
O=S(=O)(O)c1ccc2cc(/N=N/c3cc(S(=O)(=O)O)c4cccnc4c3O)ccc2c1 : < 4.80

Exam item: # get_value(readout= pIC50, system= LS-411N) for `O=C1NC(=O)c2c1c(-c1ccccc1Cl)cc1[nH]c3ccc(O)cc3c21`
Marked response: < 5.70

====

Each record here notes measured pIC50.
System: NCI-H226;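 note: cell viability read-out used to gauge growth inhibition of the cells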
TEST_DETAILS: cells
Assay type: functional, cell-based, Homo sapiens
TEST_PARAMETERS: Homo sapiens, NCI-H226
Description: SANGER: Inhibition of human NCI-H226 cell growth in a cell viability assay.
pIC50: −log10 of the molar value. Where a SMILES comes first, the peptide text is derived from it. The star is where a group is joined. Cbz = O=C(OCc1ccccc1)*

Cc1cc(N2CCOCC2)cc2[nH]c(-c3c(NC[C@@H](O)c4cccc(Cl)c4)cc[nH]c3=O)nc12 : < 5.29
CCCCCCCCCCCC1=C(O)C(=O)C=C(O)C1=O [EMBELIN] : 4.75
NC1(c2ccc(-c3nc4ccn5c(=O)[nH]nc5c4cc3-c3ccccc3)cc2)CCC1 [MK-2206] : < 5.40
CN(NC(=O)CC(=O)NN(C)C(=S)c1ccccc1)C(=S)c1ccccc1 [ELESCLOMOL] : 6.88

Exam item: What value of pIC50 has been recorded for this entry: CC(C)C[C@@H](C=O)NC(=O)[C@H](CC(C)C)NC(=O)[C@H](CC(C)C)NC(=O)OCc1ccccc1 [MG-132] (Cbz-Leu-Leu-Leu-aldehyde)
Marked response: < 6.00

Exam item: Now consider `O=C1NC(=O)c2c1c(-c1ccccc1Cl)cc1[nH]c3ccc(O)cc3c21` and answer again.
Marked response: < 5.70

Exam item: What do we get for CS(=O)(=O)N1CCN(Cc2cc3nc(-c4cccc5[nH]ncc45)nc(N4CCOCC4)c3s2)CC1 [PICTILISIB] ?
Marked response: < 5.40

====

Test system: JVM-3
TEST_DETAILS: cells
Format: functional, cell-based, Homo sapiens
TEST_PARAMETERS: jvm-3
Description: SANGER: Inhibition of human JVM-3 cell growth in a cell viability assay.
pIC50: −log10 of the molar value. Where a SMILES comes first, the peptide text is derived from it. The star is where a group is joined. Cbz = O=C(OCc1ccccc1)*
QUANTITY_KIND: pIC50

Exam item: Which pIC50 value is on record for CC(C)C[C@@H](C=O)NC(=O)[C@H](CC(C)C)NC(=O)[C@H](CC(C)C)NC(=O)OCc1ccccc1 [MG-132] (Cbz-Leu-Leu-Leu-aldehyde) ?
Marked response: < 6.00

Each recorded value in this set is attributed to ChEMBL document CHEMBL1201861.
